Where do the numbers come from? From patent US20100190788A1.

# system under test: human ROCKα/ROCKII mix (Homo sapiens, UniProt O75116)
# Construct: purchased Upstate Biotechnology 14-451
# Sequence (O75116 whole entry): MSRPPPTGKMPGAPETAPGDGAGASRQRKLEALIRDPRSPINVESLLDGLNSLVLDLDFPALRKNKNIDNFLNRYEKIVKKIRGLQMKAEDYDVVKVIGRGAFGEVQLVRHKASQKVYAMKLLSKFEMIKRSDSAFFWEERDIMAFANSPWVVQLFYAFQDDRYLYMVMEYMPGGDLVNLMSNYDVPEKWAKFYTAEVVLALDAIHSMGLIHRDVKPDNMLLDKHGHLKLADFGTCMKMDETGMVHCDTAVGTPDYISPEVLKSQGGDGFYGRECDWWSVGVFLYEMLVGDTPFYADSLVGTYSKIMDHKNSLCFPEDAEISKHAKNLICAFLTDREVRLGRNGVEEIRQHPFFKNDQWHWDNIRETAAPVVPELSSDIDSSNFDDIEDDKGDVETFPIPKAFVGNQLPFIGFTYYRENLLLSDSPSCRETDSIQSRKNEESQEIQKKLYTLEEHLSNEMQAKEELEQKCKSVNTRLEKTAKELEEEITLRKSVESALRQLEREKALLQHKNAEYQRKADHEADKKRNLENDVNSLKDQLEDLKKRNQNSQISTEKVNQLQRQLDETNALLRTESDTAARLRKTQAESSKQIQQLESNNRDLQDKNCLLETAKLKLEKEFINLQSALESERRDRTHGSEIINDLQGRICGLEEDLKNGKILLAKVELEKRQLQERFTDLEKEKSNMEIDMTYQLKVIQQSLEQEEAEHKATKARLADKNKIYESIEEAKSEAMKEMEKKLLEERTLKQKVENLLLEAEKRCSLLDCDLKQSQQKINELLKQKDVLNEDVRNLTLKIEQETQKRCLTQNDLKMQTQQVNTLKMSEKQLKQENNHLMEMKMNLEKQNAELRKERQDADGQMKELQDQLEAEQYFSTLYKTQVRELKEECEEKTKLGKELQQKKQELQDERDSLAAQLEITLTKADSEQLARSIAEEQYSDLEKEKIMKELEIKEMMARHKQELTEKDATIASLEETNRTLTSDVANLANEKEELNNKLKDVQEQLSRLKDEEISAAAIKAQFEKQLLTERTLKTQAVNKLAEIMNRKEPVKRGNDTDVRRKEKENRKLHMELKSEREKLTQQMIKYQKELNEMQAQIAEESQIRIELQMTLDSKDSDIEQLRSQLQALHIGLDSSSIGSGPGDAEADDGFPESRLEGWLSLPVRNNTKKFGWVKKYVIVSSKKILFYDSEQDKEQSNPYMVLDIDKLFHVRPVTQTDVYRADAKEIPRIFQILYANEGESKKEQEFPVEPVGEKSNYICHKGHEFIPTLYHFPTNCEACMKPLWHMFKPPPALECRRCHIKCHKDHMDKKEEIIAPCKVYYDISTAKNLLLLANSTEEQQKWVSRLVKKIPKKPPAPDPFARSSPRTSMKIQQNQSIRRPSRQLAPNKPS
# assay comment: ROCK inhibition, fluorescence polarization (FP) assay with ROCK IMAP Kit
# Format: biochemical
# assay context: Table 1, compounds of Formula IV20
For each entry below, report its IC50 value.

CC1CC(C)CN(C(=O)C(N)c2ccc(C(=O)Nc3ccncc3)cc2)C1 (stereo not drawn) ... < 0.5 µM

Need IC50 for each of these compounds.
1. NC(C(=O)N1CCC(Cc2ccccc2)CC1)c1ccc(C(=O)Nc2ccncc2)cc1 (stereo not drawn)
2. NC(C(=O)NCCc1ccc(F)cc1)c1ccc(C(=O)Nc2ccncc2)cc1 (stereo not drawn)
3. CONC(=O)C(N)c1ccc(C(=O)Nc2ccncc2)cc1 (stereo not drawn)

Ans.
1. 0.5 to 5 µM
2. < 0.5 µM
3. 0.5 to 5 µM

Look at each compound and report its IC50.
1. NC(C(=O)NCc1ccccc1Cl)c1ccc(C(=O)Nc2ccncc2)cc1 (stereo not drawn)
2. NC(C(=O)NCC1CCCO1)c1ccc(C(=O)Nc2ccncc2)cc1 (stereo not drawn)
3. COCC(C)NC(=O)C(N)c1ccc(C(=O)Nc2ccncc2)cc1 (stereo not drawn)
4. NC(C(=O)NCCc1ccccc1)c1ccc(C(=O)Nc2ccncc2)cc1 (stereo not drawn)

Ans.
< 0.5 µM
0.5 to 5 µM
0.5 to 5 µM
< 0.5 µM

Qu. Report IC50, nothing else, for this compound: CS(=O)(=O)NCCNC(=O)C(N)c1ccc(C(=O)Nc2ccncc2)cc1 (stereo not drawn)
Ans. 0.5 to 5 µM
